List of pIC50 values.
molecular target: human JAK3 (a.a. 781-1124) (Homo sapiens, UniProt P52333); construct: JAK3 (a.a. 781-1124); His tag (N); made in house; host or cells: insect cells (baculovirus); assay: In vitro JAK kinase assay (HTRF, phosphorylation of a biotinylated peptide), JAK3; format: biochemical; conditions: Table D1
Sequence (P52333 781-1124): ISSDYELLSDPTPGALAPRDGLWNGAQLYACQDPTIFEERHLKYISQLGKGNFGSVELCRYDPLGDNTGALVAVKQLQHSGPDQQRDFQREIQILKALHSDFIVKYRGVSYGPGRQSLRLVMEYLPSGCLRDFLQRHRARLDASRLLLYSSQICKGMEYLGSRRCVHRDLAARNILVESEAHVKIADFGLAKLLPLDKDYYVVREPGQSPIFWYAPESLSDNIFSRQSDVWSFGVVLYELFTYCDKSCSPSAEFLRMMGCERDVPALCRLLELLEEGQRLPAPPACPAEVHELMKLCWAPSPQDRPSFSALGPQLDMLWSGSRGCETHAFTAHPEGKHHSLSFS
Counter-ions that a name gives are not always drawn.
As a rule, pIC50 stands for the negative log10 of the concentration, concentration in M.

The cases that follow already have their pIC50 on record.
Clc1cnc2nc1Nc1cccc(c1)OCCc1cc(CN3CCOCC3)cc(c1)N2 [Example D189, bis(trifluoroacetate)]
8.14
Clc1cnc2nc1Nc1cccc(c1)CCSCc1cccc(c1)N2 [Example D34, trifluoroacetate]
6.87
CS(=O)(=O)N1CCN(c2cc(-c3cc4cc(c3)Nc3ncc(Cl)c(n3)Nc3cccc(c3)OCC4)ccn2)CC1 [Example D36, bis(trifluoroacetate)]
8.31

Exam item: # pIC50 lookup, item NC(=O)N1CCN(c2cc(-c3cc4cc(c3)Nc3ncc(Cl)c(n3)Nc3cccc(c3)OCC4)ccn2)CC1 [Example D39, bis(trifluoroacetate)]
Marked response: 8.19

Exam item: # pIC50 lookup, item O=C(Nc1cc2cc(c1)OCCSc1cccc(c1)Nc1nc(ncc1Cl)N2)c1ccco1 [Example D62, trifluoroacetate]
Marked response: 7.74

Exam item: # pIC50 lookup, item Clc1cnc2nc1Nc1cccc(c1)COCc1cccc(c1)N2 [Example D21, trifluoroacetate]
Marked response: 7.35
